tgt: human ribonucleotide reductase (hRR) (Homo sapiens, UniProt P23921)
Construct: Preparation of cell extract containing human ribonucleotide reductase (hRR); endogenous in cells; host or cells: HeLa cells (ATCC CCL 2.2); extract cleared with streptomycin sulphate, 50% ammonium sulphate cut, diafiltered
Sequence (P23921 1-792): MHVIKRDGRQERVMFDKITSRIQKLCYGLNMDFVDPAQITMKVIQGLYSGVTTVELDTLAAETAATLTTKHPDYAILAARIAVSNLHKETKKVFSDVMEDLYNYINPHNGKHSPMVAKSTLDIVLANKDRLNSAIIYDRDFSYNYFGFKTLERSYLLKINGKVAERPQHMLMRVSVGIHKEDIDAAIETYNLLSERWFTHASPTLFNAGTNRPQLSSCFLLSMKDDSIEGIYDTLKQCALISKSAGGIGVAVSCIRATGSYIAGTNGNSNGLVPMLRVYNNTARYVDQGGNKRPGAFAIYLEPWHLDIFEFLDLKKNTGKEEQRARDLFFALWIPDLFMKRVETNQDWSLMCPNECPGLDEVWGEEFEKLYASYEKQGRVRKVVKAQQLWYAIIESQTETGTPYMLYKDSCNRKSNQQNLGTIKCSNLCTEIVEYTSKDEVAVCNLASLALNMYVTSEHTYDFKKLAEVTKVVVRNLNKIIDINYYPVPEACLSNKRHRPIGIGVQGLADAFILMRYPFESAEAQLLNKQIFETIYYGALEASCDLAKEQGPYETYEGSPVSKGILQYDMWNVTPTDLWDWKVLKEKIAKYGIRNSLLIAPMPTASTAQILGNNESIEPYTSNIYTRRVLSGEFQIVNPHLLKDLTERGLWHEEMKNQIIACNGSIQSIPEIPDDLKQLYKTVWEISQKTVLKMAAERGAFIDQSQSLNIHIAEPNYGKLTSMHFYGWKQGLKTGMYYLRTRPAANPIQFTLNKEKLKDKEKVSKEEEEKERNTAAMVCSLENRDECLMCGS
assayInfo: Inhibition of Human Ribonucleotide Reductase Assay
Type: biochemical
experimentalConditions: Hela cell extract; conversion of (14C)CDP to (14C)dCDP; text of Example 3; read-out: IC50
No end group written: not given here.
measuredMetric: pIC50
Remember, pIC50 is on a log scale: it is -log10 of the molar concentration.

stdin: Request the reported pIC50 associated with Ac-FTLDADF [Example 2, AcPhe-Thr-Leu-Asp-Ala-Asp-Phe-OH]
stdout: 4.42

###

Recorded IC50 by entry
tgt: human ribonucleotide reductase (hRR) (Homo sapiens)
Construct: Preparation of cell extract containing human ribonucleotide reductase (hRR); endogenous in cells; host or cells: HeLa cells (ATCC CCL 2.2); extract cleared with streptomycin sulphate, 50% ammonium sulphate cut, diafiltered
assayInfo: Inhibition of Human Ribonucleotide Reductase Assay
Type: biochemical
experimentalConditions: inhibition of human RR assay; list after the table; unit μM; read-out: IC50 (shown in parenthesis)
No end group written: not given here.
# unit: µM | format: bare number

// worked examples, IC50 included
substance	measuredNumber
Ac-FTLDEDF [AcPhe-Thr-Leu-Asp-Glu-Asp-Phe-OH]	28
Ac-FTLNADF [AcPhe-Thr-Leu-Asn-Ala-Asp-Phe-OH]	31
Ac-FTLGADF [AcPhe-Thr-Leu-Gly-Ala-Asp-Phe-OH]	150
Ac-FTFNEDF [AcPhe-Thr-Phe-Asn-Glu-Asp-Phe-OH]	150

stdin: Give recorded IC50 with human ribonucleotide reductase (hRR) (Homo sapiens) for the following substance: H-SSPTENSFTLDADF-OH
stdout: 26

stdin: # value lookup — system human ribonucleotide reductase (hRR) (Homo sapiens), readout IC50, item Ac-FTLDVDF [AcPhe-Thr-Leu-Asp-Val-Asp-Phe-OH]
stdout: 39

###

// values below are reported IC50
tgt: human ribonucleotide reductase (hRR) (Homo sapiens)
Construct: Preparation of cell extract containing human ribonucleotide reductase (hRR); endogenous in cells; host or cells: HeLa cells (ATCC CCL 2.2); extract cleared with streptomycin sulphate, 50% ammonium sulphate cut, diafiltered
assayInfo: Inhibition of Human Ribonucleotide Reductase Assay
Format: biochemical
experimentalConditions: inhibition of human RR assay; list after the table; unit μM; read-out: IC50 (shown in parenthesis)
Method: Inhibition of Human Ribonucleotide Reductase Assay (a) Cell line: Hela cells (ATCC CCL 2.2), human epitheloid carcinoma, cervix. […] The activity of RR was quantitated by following the conversion of radiolabeled cytidine diphosphate to radiolabeled deoxycytidine diphosphate, i.e. (^14 C)CDP to (^14 C)dCDP. […] The conversion factor for the Hela assay was 0.108. Specific activity was expressed as units/mg of protein in the incubation mixture. […]
No end group written: not given here.
Supply the numeric figure in µM, leaving out any unit text.

substance	measuredMetric	measurementUnits	measuredNumber
Ac-FTLFADF [AcPhe-Thr-Leu-Phe-Ala-Asp-Phe-OH]	IC50	µM	73

stdin: Query the reported IC50 for human ribonucleotide reductase (hRR) (Homo sapiens); item: H-SPTENSFTLDADF-OH
stdout: 29

stdin: Can you look up IC50 on human ribonucleotide reductase (hRR) (Homo sapiens) for H-PTENSFTLDADF-OH ?
stdout: 41

stdin: Which measured IC50 belongs to Ac-FTLQADF [AcPhe-Thr-Leu-Gln-Ala-Asp-Phe-OH] , tested on human ribonucleotide reductase (hRR) (Homo sapiens)?
stdout: 120

Origin of the recorded values: patent US5071835A
